TARGET: THRβ (Homo sapiens)
Construct: GST
Sequence (P10828 whole entry): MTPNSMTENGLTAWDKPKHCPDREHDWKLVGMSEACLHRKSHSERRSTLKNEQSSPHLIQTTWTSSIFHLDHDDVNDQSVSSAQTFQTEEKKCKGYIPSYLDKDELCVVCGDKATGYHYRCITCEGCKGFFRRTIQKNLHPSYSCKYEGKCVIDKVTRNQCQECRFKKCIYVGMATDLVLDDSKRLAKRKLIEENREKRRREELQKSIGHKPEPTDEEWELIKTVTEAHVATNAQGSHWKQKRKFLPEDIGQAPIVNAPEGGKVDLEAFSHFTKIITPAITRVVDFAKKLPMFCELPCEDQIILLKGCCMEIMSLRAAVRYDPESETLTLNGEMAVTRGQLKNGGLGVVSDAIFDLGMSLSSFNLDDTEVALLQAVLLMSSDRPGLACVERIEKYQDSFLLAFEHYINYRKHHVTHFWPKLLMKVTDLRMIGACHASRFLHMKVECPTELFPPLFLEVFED
Sequence (P19793 225-462 partner limits assumed): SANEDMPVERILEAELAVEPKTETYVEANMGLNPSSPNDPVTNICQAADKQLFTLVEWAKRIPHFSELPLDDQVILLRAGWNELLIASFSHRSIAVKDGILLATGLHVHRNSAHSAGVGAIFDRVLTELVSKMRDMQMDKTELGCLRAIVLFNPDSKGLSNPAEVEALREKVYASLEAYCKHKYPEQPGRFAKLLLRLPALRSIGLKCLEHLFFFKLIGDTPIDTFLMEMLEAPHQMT
Sequence (Q15596 679-703 partner limits assumed): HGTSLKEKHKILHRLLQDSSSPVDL
EXPERIMENTAL PROTOCOL: THRβ agonist activity, fluorescence ratio 665 nm/615 nm with EE-RxRα and biotin-GRIP
CONDITION CONTEXT: incubated overnight at 4° C.
pEC50: −log10 of the molar value.
OBSERVABLE: pEC50

N#Cc1nn(-c2ccc(Oc3n[nH]c(=O)cc3C3CC3)c(Cl)c2)c(=O)[nH]c1=O | 5.49

A: CC(C)c1cc(Oc2ccc(-n3nc(C#N)c(=O)[nH]c3=O)c(Cl)c2)n[nH]c1=O
B: N#Cc1nn(-c2cc(Cl)c(Oc3cc(C4CCCC4)c(=O)[nH]n3)cc2Cl)c(=O)[nH]c1=O
# returns the entry with the larger pEC50; inputs A and B # respond with the chosen item's label
B

I: CC(C)c1cc(Oc2c(Cl)cc(-c3nn[nH]n3)cc2Cl)n[nH]c1=O
II: CC(C)Cc1cc(Oc2ccc(-n3nc(C#N)c(=O)[nH]c3=O)cc2Br)n[nH]c1=O
III: N#Cc1nn(-c2ccc(Oc3cc(CC4CCCC4)c(=O)[nH]n3)c(Cl)c2)c(=O)[nH]c1=O
Order the 3 compounds from highest to lowest pEC50. Response format: the labels, sorted as the prompt asks.
III, I, II

I: Cc1c(Oc2ccc(-n3nc(C#N)c(=O)[nH]c3=O)cc2Cl)n[nH]c(=O)c1C
II: N#Cc1nn(-c2ccc(Oc3cc(CC4CCCC4)c(=O)[nH]n3)c(Br)c2)c(=O)[nH]c1=O
I'm curious whether I or II has the smaller pEC50 number. Which is it? Please respond with the label that marks your chosen entry.
II
(II: 6.19, I: 8.00)

* * *

TARGET: THRα (Homo sapiens, UniProt P10827)
Construct: GST
Sequence (P10827 1-410 isoform P10827-2, one chain of several): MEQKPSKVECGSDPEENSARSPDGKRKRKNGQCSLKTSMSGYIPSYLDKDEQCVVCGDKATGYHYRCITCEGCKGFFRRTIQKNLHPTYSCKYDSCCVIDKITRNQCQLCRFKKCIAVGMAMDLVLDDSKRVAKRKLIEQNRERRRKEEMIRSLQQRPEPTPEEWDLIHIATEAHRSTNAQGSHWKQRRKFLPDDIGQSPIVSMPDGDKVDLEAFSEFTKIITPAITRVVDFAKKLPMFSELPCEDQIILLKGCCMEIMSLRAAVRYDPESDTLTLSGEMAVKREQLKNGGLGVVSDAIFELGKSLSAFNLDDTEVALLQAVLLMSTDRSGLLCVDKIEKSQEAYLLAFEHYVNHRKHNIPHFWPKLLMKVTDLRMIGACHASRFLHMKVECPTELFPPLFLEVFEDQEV
EXPERIMENTAL PROTOCOL: THRα agonist activity, fluorescence ratio 665 nm/615 nm with EE-RxRα and biotin-GRIP
CONDITION CONTEXT: incubated overnight at 4° C.
pEC50: −log10 of the molar value.
OBSERVABLE: pEC50

Some molecules with recorded pEC50:
CC(C)c1cc(=O)[nH]nc1Oc1ccc(-n2nc(C#N)c(=O)[nH]c2=O)c(Cl)c1 | 4.86
CC(C)c1cc(Oc2ccc(-n3nc(C#N)c(=O)[nH]c3=O)cc2Cl)n[nH]c1=O | 5.68
N#Cc1cn(-c2cc(Cl)c(Oc3cc(C4CCC4)c(=O)[nH]n3)c(Cl)c2)c(=O)[nH]c1=O | 5.74
CC(C)(C)c1cc(Oc2ccc(-n3nc(C#N)c(=O)[nH]c3=O)cc2Cl)n[nH]c1=O | 5.86

A: CC(C)c1cc(Oc2ccc(-n3cc(C#N)c(=O)[nH]c3=O)c(Cl)c2)n[nH]c1=O
B: CC(C)(C)Cc1cc(Oc2cc(Cl)c(-n3cc(C#N)c(=O)[nH]c3=O)cc2Cl)n[nH]c1=O
Parameter check: reported pEC50 is higher for which label, A or B ? Response format: the label of the selected entry.
A

I: CC(C)(C)Cc1cc(Oc2c(Cl)cc(-n3nc(C#N)c(=O)[nH]c3=O)cc2Cl)n[nH]c1=O
II: COc1cc(-n2nc(C#N)c(=O)[nH]c2=O)ccc1Oc1cc(C(C)(C)C)c(=O)[nH]n1
Please choose the item with the lower pEC50 value from this pair: I and II // return label of chosen record
I
(I: 5.68, II: 6.05)

A: N#Cc1nn(-c2ccc(Oc3cc(CC4CCCC4)c(=O)[nH]n3)c(Br)c2)c(=O)[nH]c1=O
B: CC(C)(C)Cc1cc(Oc2ccc(-n3nc(C#N)c(=O)[nH]c3=O)cc2Cl)n[nH]c1=O
C: CC(C)(C)c1cc(Oc2c(Cl)cc(-n3nc(C#N)c(=O)[nH]c3=O)cc2Cl)n[nH]c1=O
D: N#Cc1nn(-c2cc(Cl)c(Oc3cc(CC4CCCC4)c(=O)[nH]n3)cc2Cl)c(=O)[nH]c1=O
List from greatest to least pEC50. List the labels in the requested order.
C, D, A, B
(C: 6.90, D: 5.67, A: 5.32, B: 4.93)

A: CC(C)c1cc(Oc2c(Cl)cc(-c3c[nH]c(=O)c(O)c3)cc2Cl)n[nH]c1=O
B: Cc1c(Oc2ccc(-n3nc(C#N)c(=O)[nH]c3=O)cc2F)n[nH]c(=O)c1C
// compare: A vs B , metric pEC50, want the smaller API: response body contains the label of the selected item.
A
